Just for reference, PubChem BioAssay (NCI) is where these values come from.

Test system: DU-145 prostate
Assay name: NCI tumour cell line growth inhibition, 48 h
*1 amine or outer side, *2 acyl side, *3 side chain or, on linkers, in order; H or OH if unused. Where a SMILES comes first, the peptide text is derived from it. The star is where a group is joined. γGlu = O=C(O)[CH](CCC(=O)[*:2])N[*:1]; NHOH = ON*
Measured TGI values are reported for all entries that follow.

[
  {
    "Compound": "COc1cc(/C=C/c2cc(O)c(C/C=C(\\C)CC/C=C(\\C)CO)c(O)c2)cc2c1O[C@]1(C)CC[C@@H](O)C(C)(C)[C@H]1C2",
    "TGI": "> 100 µM"
  },
  {
    "Compound": "CNc1ncnc2c1cnn2CCCCO",
    "TGI": "> 100 µM"
  },
  {
    "Compound": "Cc1c/c(=N/NC(=O)c2ccncc2)n2nc(N)sc2n1",
    "TGI": "> 100 µM"
  },
  {
    "Compound": "O=C(CSc1nc2ccc(I)cc2c(=O)n1Cc1ccccc1)NN1C(=O)c2ccccc2C1=O",
    "TGI": "95.1 µM"
  },
  {
    "Compound": "Cc1cccc(C)c1N1C(=O)C2c3[nH]c4ccccc4c3C3CCC(C(C)(C)C)CC3C2C1=O (stereo not drawn)",
    "TGI": "22.5 µM"
  },
  {
    "Compound": "C=C1CC(C)(COc2ccc3c(C)cc(=O)oc3c2)OC1=O (stereo not drawn)",
    "TGI": "8.96 µM"
  },
  {
    "Compound": "Cc1c(N=Nc2ccc(Cl)cc2)c(C)n(C2OC(CO)C(O)C(O)C2O)c(=S)c1C#N (stereo not drawn)",
    "TGI": "> 100 µM"
  },
  {
    "Compound": "COc1ccc(/C=C2/CN(CCC#N)C/C(=C\\c3ccc(OC)cc3)C2=O)cc1",
    "TGI": "> 100 µM"
  },
  {
    "Compound": "CC1COCCN1CC#CCOC(=O)c1cc2ccccc2oc1=O (stereo not drawn)",
    "TGI": "> 100 µM"
  },
  {
    "Compound": "C[N+](C)(C)CCN[N+]1(C)CCCc2ccccc21 (stereo not drawn)",
    "TGI": "> 100 µM"
  },
  {
    "Compound": "COCCOC1=C(Cl)C(=O)c2c(O)ccc(O)c2C1=O",
    "TGI": "13.2 µM"
  },
  {
    "Compound": "COc1ccc(-c2nc3sccn3c2-c2ccnc(NCCCNS(=O)(=O)c3ccc(F)cc3)n2)cc1",
    "TGI": "> 100 µM"
  },
  {
    "Compound": "O=C1N(CN2CCOCC2)CN(CN2CCOCC2)C(=O)N1Cc1ccc(CN2C(=O)N(CN3CCOCC3)CN(CN3CCOCC3)C2=O)cc1",
    "TGI": "> 100 µM"
  },
  {
    "Compound": "CC(C)(C)OC(=O)NC(CS(=O)(=O)O)C(=O)O (stereo not drawn)",
    "TGI": "> 100 µM"
  },
  {
    "Compound": "CC1CC(Br)C(=O)O1 (stereo not drawn)",
    "TGI": "> 100 µM"
  },
  {
    "Compound": "Cn1cnc2c1c(=O)n(CCNCCO)c(=O)n2C",
    "TGI": "> 100 µM"
  },
  {
    "Compound": "O=C(N/N=C/c1ccc(Cl)cc1)c1ccccc1Nc1ccccc1C(=O)N/N=C/c1ccc(Cl)cc1",
    "TGI": "> 100 µM"
  },
  {
    "Compound": "CC12CC(=O)C3C(CCC4=CC(=O)CCC43C)C1CC=C2CC(=O)O (stereo not drawn)",
    "TGI": "> 100 µM"
  },
  {
    "Compound": "CCOC(=O)CNC(=O)C(CCC(=O)NO)NC(=O)CCC(N)C(=O)O (stereo not drawn) (γGlu-Glu(NHOH)-Gly-OEt; configuration not given here)",
    "TGI": "> 100 µM"
  },
  {
    "Compound": "COc1ccc(/C=C2\\CCc3cc(OC)c(OC)cc3C2=O)cc1",
    "TGI": "> 10 µM"
  },
  {
    "Compound": "O=c1c2ccccc2nc2sc(/N=C/C=C/c3ccccc3)nn12",
    "TGI": "> 100 µM"
  },
  {
    "Compound": "CSc1nc(Br)nc2ncn(C3CC(Oc4ccc(C)cc4)C(COc4ccc(C)cc4)O3)c12 (stereo not drawn)",
    "TGI": "> 100 µM"
  },
  {
    "Compound": "COC(=O)NC1C(C)OC(OC2C/C=C(/C)C3C=CC4C(OC5CC(OC6CC(OC7CC(O)C(O)C(C)O7)C(OC7CC(O)C(OC)C(C)O7)C(C)O6)C(O)C(C)O5)C(C)CC(C)C4C3(C)/C(O)=C3\\C(=O)OC4(CC(C)C(CO)=CC4/C=C\\2C)C3=O)CC1(C)[N+](=O)[O-] (stereo not drawn)",
    "TGI": "19.6 µM"
  }
]
